Cited source for all entries: paper PMC7531004

Test system: Streptococcus pyogenes SSI-9
Test: Antibacterial activity assay of bead-derived peptides (three concentrations)
Assay type: cell-based
Design: key: +++: inhibition by the 640-fold diluted peptide solution; ++: inhibition by the 160-fold diluted solution; +: inhibition by the 40-fold diluted solution; -: no inhibition
Settings: S. pyogenes, bead-derived peptide solution, three concentrations
Protocol: Each type of assay must be simplified and miniaturized to assess the activities of the library peptides in a 96-well format for the high-throughput screening. Next, the peptides in groups A and B were subjected to the antibacterial assay and structural determination. Three peptide concentrations were applied to evaluate the growth inhibition of S. pyogenes and determine the antibacterial activity. […] Finally, the structures of the peptides were determined. […]
Where a SMILES comes first, the peptide text is derived from it. [ ]: non-standard residue; d: D form. The star is where a group is joined. NHCH2CH2OH = OCCN*; For = O=C*

# MOLECULE, TGT, antibacterial activity
measured = [
    ("CNC(=O)C[C@@H](NC(=O)[C@@H](NC(=O)[C@H](NC(=O)[C@H](C)NC(=O)[C@H](NC(=O)[C@H](C)NC(=O)CNC(=O)[C@@H](NC=O)C(C)C)C(C)C)C(C)C)C(C)C)C(=O)N[C@@H](Cc1c[nH]c2ccccc12)C(=O)N[C@H](CC(C)C)C(=O)N[C@@H](Cc1c[nH]c2ccccc12)C(=O)N[C@H](CC(C)C)C(=O)N[C@@H](Cc1c[nH]c2ccccc12)C(=O)N[C@@H](C(=O)N[C@@H](Cc1c[nH]c2ccccc12)C(=O)NCCO)C(C)C [compound 6899] (For-VGA[dV]A[dV]V[dD](NHMe)W[dL]W[dL]W[dV]W-NHCH2CH2OH)", "Streptococcus pyogenes SSI-9", "-"),
    ("CC(C)C[C@@H](NC(=O)[C@H](C)NC(=O)CNC(=O)[C@@H](NC=O)C(C)C)C(=O)N[C@@H](C)C(=O)N[C@H](CC(C)C)C(=O)N[C@H](C(=O)N[C@@H](C(=O)N[C@@H](Cc1c[nH]c2ccccc12)C(=O)N[C@@H](C(=O)N[C@@H](Cc1c[nH]c2ccccc12)C(=O)N[C@@H](C(=O)N[C@@H](Cc1c[nH]c2ccccc12)C(=O)N[C@H](CC(C)C)C(=O)N[C@@H](Cc1c[nH]c2ccccc12)C(=O)NCCO)C(C)C)[C@H](C)O)[C@H](C)O)C(C)C [compound 3782] (For-VGA[dL]A[dL]V[dT]W[dT]W[dV]W[dL]W-NHCH2CH2OH)", "Streptococcus pyogenes SSI-9", "-"),
    ("CNC(=O)C[C@@H](NC(=O)[C@@H](NC(=O)[C@@H](CC(C)C)NC(=O)[C@H](C)NC(=O)[C@@H](CC(C)C)NC(=O)[C@H](C)NC(=O)CNC(=O)[C@@H](NC=O)C(C)C)C(C)C)C(=O)N[C@@H](Cc1c[nH]c2ccccc12)C(=O)N[C@H](CC(C)C)C(=O)N[C@@H](Cc1c[nH]c2ccccc12)C(=O)N[C@@H](C(=O)N[C@@H](Cc1c[nH]c2ccccc12)C(=O)N[C@H](CC(C)C)C(=O)N[C@@H](Cc1c[nH]c2ccccc12)C(=O)NCCO)C(C)C [compound 8600] (For-VGA[dL]A[dL]V[dD](NHMe)W[dL]W[dV]W[dL]W-NHCH2CH2OH)", "Streptococcus pyogenes SSI-9", "-"),
    ("CC(C)C[C@@H](NC(=O)[C@H](C)NC(=O)CNC(=O)[C@@H](NC=O)C(C)C)C(=O)N[C@@H](C)C(=O)N[C@H](CC(C)C)C(=O)N[C@H](C(=O)N[C@@H](C(=O)N[C@@H](Cc1c[nH]c2ccccc12)C(=O)N[C@@H](C(=O)N[C@@H](Cc1c[nH]c2ccccc12)C(=O)N[C@H](CC(C)C)C(=O)N[C@@H](Cc1c[nH]c2ccccc12)C(=O)N[C@H](CC(C)C)C(=O)N[C@@H](Cc1c[nH]c2ccccc12)C(=O)NCCO)C(C)C)C(C)C)C(C)C [compound 8858] (For-VGA[dL]A[dL]V[dV]W[dV]W[dL]W[dL]W-NHCH2CH2OH)", "Streptococcus pyogenes SSI-9", "+"),
    ("CC(C)C[C@@H](NC(=O)[C@H](Cc1c[nH]c2ccccc12)NC(=O)[C@@H](CC(C)C)NC(=O)[C@@H](NC(=O)[C@H](NC(=O)[C@H](C)NC(=O)[C@H](NC(=O)[C@H](C)NC(=O)CNC(=O)[C@@H](NC=O)C(C)C)C(C)C)C(C)C)C(C)C)C(=O)N[C@@H](Cc1c[nH]c2ccccc12)C(=O)N[C@@H](C(=O)N[C@@H](Cc1c[nH]c2ccccc12)C(=O)N[C@@H](C(=O)N[C@@H](Cc1c[nH]c2ccccc12)C(=O)NCCO)C(C)C)C(C)C [compound 100] (For-VGA[dV]A[dV]V[dL]W[dL]W[dV]W[dV]W-NHCH2CH2OH)", "Streptococcus pyogenes SSI-9", "++"),
    ("CC(C)C[C@@H](NC(=O)[C@H](Cc1c[nH]c2ccccc12)NC(=O)[C@H](NC(=O)[C@H](Cc1c[nH]c2ccccc12)NC(=O)[C@H](NC(=O)[C@H](Cc1c[nH]c2ccccc12)NC(=O)[C@@H](CC(C)C)NC(=O)[C@@H](NC(=O)[C@H](NC(=O)[C@H](C)NC(=O)[C@H](NC(=O)[C@H](C)NC(=O)CNC(=O)[C@@H](NC=O)C(C)C)[C@H](C)O)C(C)C)C(C)C)C(C)C)C(C)C)C(=O)N[C@@H](Cc1c[nH]c2ccccc12)C(=O)NCCO [compound 9075] (For-VGA[dT]A[dV]V[dL]W[dV]W[dV]W[dL]W-NHCH2CH2OH)", "Streptococcus pyogenes SSI-9", "-"),
    ("CC(C)C[C@@H](NC(=O)[C@H](C)NC(=O)CNC(=O)[C@@H](NC=O)C(C)C)C(=O)N[C@@H](C)C(=O)N[C@H](CC(C)C)C(=O)N[C@H](C(=O)N[C@H](CC(C)C)C(=O)N[C@@H](Cc1c[nH]c2ccccc12)C(=O)N[C@@H](C(=O)N[C@@H](Cc1c[nH]c2ccccc12)C(=O)N[C@H](CC(C)C)C(=O)N[C@@H](Cc1c[nH]c2ccccc12)C(=O)N[C@H](CC(C)C)C(=O)N[C@@H](Cc1c[nH]c2ccccc12)C(=O)NCCO)[C@H](C)O)C(C)C [compound 11408] (For-VGA[dL]A[dL]V[dL]W[dT]W[dL]W[dL]W-NHCH2CH2OH)", "Streptococcus pyogenes SSI-9", "-"),
    ("CNC(=O)C[C@@H](NC(=O)[C@@H](NC(=O)[C@@H](CC(C)C)NC(=O)[C@H](C)NC(=O)[C@H](NC(=O)[C@H](C)NC(=O)CNC(=O)[C@@H](NC=O)C(C)C)C(C)C)C(C)C)C(=O)N[C@@H](Cc1c[nH]c2ccccc12)C(=O)N[C@H](CC(C)C)C(=O)N[C@@H](Cc1c[nH]c2ccccc12)C(=O)N[C@@H](C(=O)N[C@@H](Cc1c[nH]c2ccccc12)C(=O)N[C@@H](C(=O)N[C@@H](Cc1c[nH]c2ccccc12)C(=O)NCCO)C(C)C)C(C)C [compound 6822] (For-VGA[dV]A[dL]V[dD](NHMe)W[dL]W[dV]W[dV]W-NHCH2CH2OH)", "Streptococcus pyogenes SSI-9", "-"),
]
